Species: Cavia porcellus
procedure text: The compound was tested for the agonistic activity of amylase secretion by Guinea pig acini
Format: functional
Starred links: 1 amine or outer side, 2 acyl side, 3 side chain; linkers in the order of their positions; H or OH if unused. Non-standard residues stand in square brackets, D forms with d. Residues, ends and D or L forms follow the SMILES beside them. Phe(4-CH2SO3H) = N[C@@H](Cc1ccc(CS(=O)(=O)O)cc1)C(=O)O; X1 = O=C([C@@H](Cc1ccc(CS(=O)(=O)O)cc1)N[*:1])[*:2]; Nle = CCCC[C@H](N)C(=O)O
endpoint name: pEC50
Please report pEC50 as the negative decimal logarithm of the molar concentration, giving only the number.

| compound | pEC50 |
| --- | --- |
| CCCC[C@H](NC(=O)[C@H](Cc1ccc(OS(=O)(=O)O)cc1)NC(=O)OC(C)(C)C)C(=O)NCC(=O)N[C@@H](Cc1c[nH]c2ccccc12)C(=O)N[C@@H](CCCC)C(=O)N[C@@H](CC(=O)O)C(=O)N[C@@H](Cc1ccccc1)C(N)=O | 9.55 |
| CCCC[C@H](NC(=O)[C@H](Cc1ccc(CS(=O)(=O)O)cc1)NC(C)=O)C(=O)NCC(=O)N[C@@H](Cc1c[nH]c2ccccc12)C(=O)N[C@@H](CCCC)C(=O)N[C@@H](CC(=O)O)C(=O)N[C@@H](Cc1ccccc1)C(N)=O (Ac-[Phe(4-CH2SO3H)][Nle]GW[Nle]DF-NH2) | 9.48 |
| CCCC[C@H](NC(=O)[C@H](Cc1c[nH]c2ccccc12)NC(=O)CNC(=O)[C@H](CCCC)NC(=O)[C@@H](Cc1ccc(OS(=O)(=O)O)cc1)NC(=O)OC(C)(C)C)C(=O)N[C@@H](CC(=O)O)C(=O)N[C@@H](Cc1ccccc1)C(N)=O | 8.35 |
| CCCC[C@H](NC(=O)[C@H](Cc1c[nH]c2ccccc12)NC(=O)CNC(=O)[C@H](CCCC)NC(=O)[C@@H](Cc1ccc(CS(=O)(=O)O)cc1)NC(C)=O)C(=O)N[C@@H](CC(=O)O)C(=O)N[C@@H](Cc1ccccc1)C(N)=O (Ac-[X1][Nle]GW[Nle]DF-NH2) | 8.80 |

# context switch: different compound, same pEC50
Exam item: Entry under review: CSCC[C@H](NC(=O)[C@H](Cc1ccc(OS(=O)(=O)O)cc1)NC(=O)[C@@H](N)CC(=O)O)C(=O)NCC(=O)N[C@@H](Cc1c[nH]c2ccccc12)C(=O)N[C@@H](CCSC)C(=O)N[C@@H](CC(=O)O)C(=O)N[C@@H](Cc1ccccc1)C(N)=O [SINCALIDE] . Reported pEC50?
Marked response: 10.00
